System: DU-145
experiment.notes: NCI tumour cell line growth inhibition, 48 h
Calls of active or inactive are those of the source. Rule as the data show it: active = GI50 up to about 1.1 µM and inactive = higher. Peptide text beside a SMILES is read from it. * marks the point of attachment. Boc = CC(C)(C)OC(=O)*; OBn = c1ccc(CO*)cc1
Your reply should match one of these outcome classes. active, inactive

O=C1N[C@@H](COc2ccc(/C=N/c3ccc(CCc4ccc(/N=C/c5ccc(OC[C@@H]6COC(=O)N6)cc5)cc4)cc3)cc2)CO1 :: inactive
CCOC(=O)O/N=C1/C(=C2/C(=O)Nc3ccccc32)Nc2ccccc21 :: inactive
Cc1csc2c(=O)n(C3OC(CO)C(O)C3O)c(=O)[nH]c12 (configuration not stated) :: inactive
CC1=CC[C@@H]2[C@@H](CC[C@@]2(C)O)C(C)(C)[C@H]1CC[C@@H]1[C@@]2(C)CCC(=O)C(C)(C)O[C@@H]2CC[C@]1(C)O :: inactive
N=c1oc2c(Cl)cc(Cl)cc2cc1C(=O)Nc1ccccn1 :: inactive
[N-]=[N+]=NC1=CC(=O)c2cccc3cccc1c23 :: inactive

Task: Any idea what this test logged for `O=C1/C(=C/c2ccccc2)CCC/C1=C\c1ccc(O)c(CN2CCCCC2)c1` ?
Result: inactive

Task: // query: `C1=C\CCCCN2C[C@H]3CCCC/C=C\CCCCN4CC[C@@H]([C@H](CCCCCC/1)C4)[C@H](C3)C2`
Result: inactive

Task: // query: `CCN(CC)CCn1c(=O)c2ccccc2n2c3c(=O)n(C)c(=O)n(C)c3nc12`
Result: active

Task: // query: `COc1cccc(N/C(C)=C2/CCOC2=O)c1`
Result: inactive

Task: // query: CC(C)CC(NC(=O)OC(C)(C)C)C(=O)NC(CC(=O)OCc1ccccc1)C(N)=O (stereo not drawn) (Boc-Leu-Asp(OBn)-NH2; configuration not given here)
Result: inactive

Task: // query: `CC(=O)O[C@H]1C(=O)[C@@]2(C)[C@H]([C@H](OC(=O)c3cccc([N+](=O)[O-])c3)[C@]3(O)C[C@H](OC(=O)[C@H](O)[C@@H](NC(=O)c4ccccc4)c4ccccc4)C(C)=C1C3(C)C)[C@]1(OC(C)=O)CO[C@@H]1C[C@@H]2O`
Result: active

Task: // query: `CNc1nc(SC)nc2c1c(N)nn2C`
Result: inactive

Task: // query: COc1ccc2c(c1)nc1n2C(c2c(Cl)cccc2Cl)SC1 (configuration not stated)
Result: inactive

Task: // query: `C1CCCCC2(CCCCCCCCC3(CCC1)OCCO3)OCCO2`
Result: inactive

Task: // query: `CC1=NC(=Cc2ccc([N+](=O)[O-])cc2)C(=O)N1n1c(-c2ccccc2)nc2ccccc2c1=O`
Result: inactive

Task: // query: CC1=C(C)C2(C#N)C(=O)N3C(=NC(c4ccccc4)NC3c3ccccc3)C2(C#N)C(c2ccccc2)N1 (configuration not stated)
Result: inactive

* * *

Tested on: MOLT-4
experiment.notes: NCI tumour cell line growth inhibition, 48 h
Calls of active or inactive are those of the source. No stated cut-off is given here; in the data, active = GI50 up to about 1.1 µM and inactive = higher.
Task for the reader: assign each of the following compounds its reported GI50.

Cc1cc(-c2ccc(C(=O)C(c3ccccc3)(c3ccccc3)c3ccccc3)[nH]2)on1 :: 21.8 µM (inactive)

Would you be so kind as to report GI50 for each listed record?
1. COc1ccc2c(c1)nc1n2C(c2c(Cl)cccc2Cl)SC1 (centres undefined)
2. Cc1c(Cl)ccc2c(=O)c3cccc(CC(=O)O)c3oc12
3. CCOC(=O)CC(=O)NC1CC2CCC1(C)C2(C)C (centres undefined)
4. CCN(CC)CCn1c(=O)c2ccccc2n2c3c(=O)n(C)c(=O)n(C)c3nc12

Result:
> 21.6 µM (inactive)
> 100 µM (inactive)
> 100 µM (inactive)
0.239 µM (active)

* * *

Test system: RPMI-8226
experiment.notes: NCI tumour cell line growth inhibition, 48 h
Calls of active or inactive are those of the source. Cut-off read from the data, not from the text of the source: active = GI50 up to about 1.1 µM and inactive = higher.
Your reply should match one of these outcome classes. active, inactive

COC(=O)C(Br)C1CCc2ccccc21 (stereo not given) :: inactive
C#C[C@]1(O)[C@@H](CO)O[C@@H](n2ccc(=O)[nH]c2=O)[C@@H]1O :: active
Cc1cc(NCCCCCCCNc2cc(C)nc3cc([N+](=O)[O-])ccc23)c2ccc([N+](=O)[O-])cc2n1 :: inactive
CC1=NC(=Cc2ccc([N+](=O)[O-])cc2)C(=O)N1n1c(-c2ccccc2)nc2ccccc2c1=O :: inactive

# input for lookup
Task: Any idea what this test logged for `[N-]=[N+]=C(C(=O)C(=[N+]=[N-])C(=O)c1ccccc1)C(=O)c1ccccc1` ?
Result: inactive

* * *

Tested on: A498
experiment.notes: NCI tumour cell line growth inhibition, 48 h
The source made the active and inactive calls. Rule as the data show it: active = GI50 up to about 1.1 µM and inactive = higher.
Your reply should match one of these outcome classes. active, inactive

Answered cases to consult:
CCCC(=O)Nc1cc(/C=C/C(=O)N2CC(CCl)c3ccc([N+](=O)[O-])cc32)n(C)c1 (stereo not given) :: active
CC(C)N(C(=O)C12CC3CC(CC(C3)C1)C2)C(C)C :: inactive
O=C(O)c1nc2ccc(C(F)(F)F)cc2nc1NCc1ccc(F)cc1 :: inactive

Task: Any idea what this test logged for `C=CCC(CC=O)(C(=O)OCC)C(=O)OCC` ?
Result: inactive

Task: // query: `Cc1cc(N2CCN(C)CC2)n2nc(-c3ccc(Cl)cc3)nc2n1`
Result: inactive

Task: // query: `CC[C@@H]1CC[C@@H]2[C@H](CC[C@]3(C)[C@@H](O[N+](=O)[O-])CC[C@@H]23)[C@H]1C(C)=O`
Result: inactive

Task: // query: Cc1c(Cl)ccc2c1NC(=O)C2(O)C(C(=O)c1ccccc1)c1ccccc1 (stereo not given)
Result: inactive

Task: // query: `C=CCCON(C(=O)OC(C)(C)C)C(C)(C)C`
Result: inactive

* * *

Tested on: OVCAR-5
experiment.notes: NCI tumour cell line growth inhibition, 48 h
Calls of active or inactive are those of the source. No stated cut-off is given here; in the data, active = GI50 up to about 1.1 µM and inactive = higher.
Your reply should match one of these outcome classes. active, inactive

Answered cases to consult:
COc1ccc2nc3ccccc3c(NCCCCCCN(CCCl)CCCl)c2c1 :: active
CN(C)CCCNc1ccnc2cccc([N+](=O)[O-])c12 :: inactive
O=C(O)c1nc2ccc(C(F)(F)F)cc2nc1NCc1ccc(F)cc1 :: inactive
Cc1nnc2c3nnc(C)n3c3ccccc3n12 :: inactive
O=C(CN1CCCCC1)CC(O)(C(F)(F)F)C(F)(F)F :: inactive

Task: Any idea what this test logged for `Cc1csc2[n+]1C(=O)/C(=C\c1ccc([N+](=O)[O-])cc1)S2` ?
Result: inactive

* * *

System: IGROV-1
experiment.notes: NCI tumour cell line growth inhibition, 48 h
Active and inactive are the calls of the source. No stated cut-off is given here; in the data, active = GI50 up to about 1.1 µM and inactive = higher.
Task for the reader: assign each of the following compounds its reported GI50.

Before answering, review these 5 worked examples.
COC12C=CC(CC1)c1c(O)ccc(O)c12 (stereo unspecified) :: > 100 µM (inactive)
CC1(C)OC1COc1c2occc2cc2ccc(=O)oc12 (stereo unspecified) :: > 100 µM (inactive)
COc1cc2c(cc1OC)C13CC[N+]4(C)CC5=CCOC6CC(=O)N2C1C6C5CC34[O-] (stereo unspecified) :: > 100 µM (inactive)
O=C1/C(=N\NC(=S)NC2CCCCC2)c2cc([N+](=O)[O-])ccc2N1CN1CCOCC1 :: 1.51 µM (inactive)
COC(=O)C(Br)C1CCc2ccccc21 (stereo unspecified) :: > 100 µM (inactive)

Would you be so kind as to report GI50 for each listed record?
1. CC(=O)Nc1ccc(S(=O)(=O)N/N=C(\C)CN2C(=O)c3ccccc3C2=O)cc1
2. CC(C)(C)OC(=O)NC(Cc1ccc(OCc2ccccc2)cn1)C(=O)N1CCCCC1 (stereo unspecified)

Result:
1: > 100 µM (inactive); 2: 53.7 µM (inactive)

Would you be so kind as to report GI50 for each listed record?
1. Nc1ccc2c(c1)C(=O)N(OS(=O)(=O)c1ccccc1)C2=O
2. N#CNc1nc(C(=O)Nc2ccc(Cl)cc2)cc(-c2ccccc2)n1
3. Nc1ccc(O)c2c1C(=O)c1c(N)ccc(O)c1C2=O
4. COc1cc2ncnc(NS(=O)(=O)c3cc4ccccc4s3)c2cc1OC
5. C=CCc1ccc(Oc2cc(CC=C)c3c(c2O)O[C@@H](CO)[C@H]3c2ccc(O)c(-c3cc(CC=C)ccc3O)c2)cc1
6. Cn1c2cc(Cl)ccc2c2ccc3c(c21)C(=O)C=CC3=O

Result:
["> 100 µM (inactive)", "> 100 µM (inactive)", "> 100 µM (inactive)", "81.5 µM (inactive)", "32.7 µM (inactive)", "28.4 µM (inactive)"]

Would you be so kind as to report GI50 for each listed record?
1. Cn1cc(C(=O)/C(Cl)=C(\Cl)C(=O)O)c2ccccc21
2. CCCCCCCCCCCCCC(=O)O.O=CC(O)C(O)C(OC1OC(CO)C(O)C(O)C1O)C(O)CO (stereo unspecified)
3. CC(C)Cc1cc2c(cc1O)CCC1C2CC[C@@]2(C)C1CC[C@@H]2O (stereo partly specified)
4. Fc1ccccc1-c1nn2c(C34CC5CC(CC(C5)C3)C4)nnc2s1
5. O=C(CSc1nc2ccccc2c2ccccc12)c1ccccc1

Result:
1: > 100 µM (inactive); 2: 26.3 µM (inactive); 3: 15.1 µM (inactive); 4: > 100 µM (inactive); 5: > 100 µM (inactive)

Would you be so kind as to report GI50 for each listed record?
1. COc1ccc(C(=O)CC(c2ccc(OC)c(OC)c2)c2c(O)oc3ccccc3c2=O)cc1OC (stereo unspecified)
2. O=C(CCn1ccnc1[N+](=O)[O-])NCCCn1ccnc1[N+](=O)[O-]
3. NC(=O)c1cc(N(CCO)CCO)c([N+](=O)[O-])cc1[N+](=O)[O-]

Result:
1: > 100 µM (inactive); 2: > 100 µM (inactive); 3: > 100 µM (inactive)
